tested on: MS2 coat protein; experiment: apparent KD of MS2 coat protein; higher = weaker reporter binding; conditions: Eterna round: R107; input ligand: arginine 13.2 mM

{"SEQUENCE_CODE": "UGCGACAAGUGAAUACUUUGUUCUAGAGAUACCAGUUCCCGAGUGAACCCUUGGCAGCUCCCAACAUGAGGAUCACCCAUGUAUU [theeternabot_exclusion_MS2_Theo_A_24]", "TESTED_TARGET": "MS2 coat protein", "apparent KD of MS2 coat protein / nM": 15.9}
{"SEQUENCE_CODE": "GGGUGGUAGGCGGCCGCCACUGAUUUUCAUUCCUAGAUGACAUGAGGAUCACCCAUGUUUAUGGGCAGGACCGGGCCUGCUGUGG [aaaV]", "TESTED_TARGET": "MS2 coat protein", "apparent KD of MS2 coat protein / nM": 38.4}
{"SEQUENCE_CODE": "GUGUUUGUGUGAGAUACCAGUGAGGCCACAUGAGGAUCACCCAUGUCCCUCACUCCGGCCCACCCUUGGCAGCUCUUAUAGUAGU [Exclusion Theophylline B GF 23]", "TESTED_TARGET": "MS2 coat protein", "apparent KD of MS2 coat protein / nM": 9.34}
{"SEQUENCE_CODE": "CAGGUCAGGGCGGCCGCCACUGUGGCUACGGUACAUGAGGAUCACCCAUGUUUGUGGUUGAUCUACAGGACCGGGCCCUAACACG [Beabe]", "TESTED_TARGET": "MS2 coat protein", "apparent KD of MS2 coat protein / nM": 1080}
{"SEQUENCE_CODE": "AAGGGACAUGAGGAUCACCCAUGUACCGAAGGAGCGGCAGAGAUGCCAGGUAGGUCGCGGUACUUGCCGGGUCAUUCAUGCAAAA [Teanbe]", "TESTED_TARGET": "MS2 coat protein", "apparent KD of MS2 coat protein / nM": 16.4}
{"SEQUENCE_CODE": "UGACAUUGCUGCGAUACCAGACAUGAGGAUCACCCAUGUACCAAGGUACCCGAAAGGAAUGUCCCUUGGCAGCGCAGCAAUGUCU [MAT - Exclusion Theophlline B - Mod of Eli - D18]", "TESTED_TARGET": "MS2 coat protein", "apparent KD of MS2 coat protein / nM": 10.6}

----------
As shown below, each of these sequences has a reported apparent KD of K4 kissing-loop reporter value.
tested on: K4 kissing-loop RNA reporter; assay: apparent KD of K4 kissing-loop reporter; higher = weaker reporter binding; conditions: Eterna round: R107; input ligand: FMN 200 uM;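 further: bound reporter read as fluorescence of individual clusters on recovered sequencing chips by microscopy, with normalized cluster intensities fitted with a binding model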

{"SEQUENCE_CODE": "ACAAUGAUCAAAGGAUAUCGUAAGUUAUACAUCACGCGAUGAUUCAGAGGCGAGUGAUGUUUGUCUCGAGAAGGUUGGUACCGUC [theeternabot_exclusion_KL_FMN_B_37]", "apparent KD of K4 kissing-loop reporter": "366 nM"}
{"SEQUENCE_CODE": "AAGUUAUGAUCUGAUACCAGACUUUAUCUUGUUUAUAAGUCAAGUGAUGUUUGACUAUUAGUCCCUUGGCAGCAGUAUUGUUUAA [#18 K4 Theophylline B Same State]", "apparent KD of K4 kissing-loop reporter": "263 nM"}
{"SEQUENCE_CODE": "GGUUUAUAGGAGGAUACCAGUACGAAUAAAGUACAUUAAUAGUAGAGUGAUGUUCUAAAGUACCCUUGGCAGCUUAGAGUAAGUU [#18 K4 Theophylline B Exclusion]", "apparent KD of K4 kissing-loop reporter": "105 nM"}
{"SEQUENCE_CODE": "CUGACCAACAGCGAUACCAGCGUGGAGUGAUGUUCCGUGGAUCGGAGUGAUGUUCCGAAGCGCCCUUGGCAGCGCAGAAGCAGGA [Exclusion Theophylline B GF11]", "apparent KD of K4 kissing-loop reporter": "197 nM"}
{"SEQUENCE_CODE": "CAAUGAAUAUAAGAUGAUAUCAUAACAGAAGGAGCGAGUGAUAACUCAGGUAGGUCGCUGAAUUUAUCGAGUGAUGUUCGAUAAA [Same State Arginine A GF10]", "apparent KD of K4 kissing-loop reporter": "208 nM"}

Measured values drawn from the supplement of paper PMC9170038 for this set.
